Test: Phase 1 food effect study, 100 mg tablet fed vs fasted
Type: in vivo, human
Conditions: both sexes, human, plasma, oral, 100 mg, 1 × 100 mg tablet, fed; read-out: Vz/F, arithmetic mean (CV %)
Description: The treatments were administered in 1 of 2 sequences in periods 1 and 2 with a washout period of at least 7 days between each treatment. Eighteen healthy participants with a mean age of 28.4 years (range: 20 to 39 years) were enrolled. The majority of participants were male (14 of 18, 77.8%). […] Mean (SD) weight was 75.99 ([…]) kg and mean (SD) BMI was 25.03 (3.290) kg/m2. […]
measured metric: Vd/F (L)
Your answer is read as L, so omit the unit and give the number.

Recorded Vd/F for C[C@@H]1[C@H](c2ccccc2)C[C@H](NC(=O)c2cnc3c(c2)C[C@@]2(C3)C(=O)Nc3ncccc32)C(=O)N1CC(F)(F)F , please?
507

---

Test: Phase 1 hepatic impairment PK study, single 100 mg dose
Assay type: in vivo, human
Conditions: both sexes, human, plasma, po, 100 mg, 100 mg single oral dose; moderate hepatic impairment; read-out: t1/2, mean ±SD (converted)
measured metric: half-life (h)
Your answer is read as h, so omit the unit and give the number.

Recorded half-life for C[C@@H]1[C@H](c2ccccc2)C[C@H](NC(=O)c2cnc3c(c2)C[C@@]2(C3)C(=O)Nc3ncccc32)C(=O)N1CC(F)(F)F [ubrogepant] , please?
5.95

---

Assay: Phase 1 hepatic impairment PK study, single 100 mg dose
Format: in vivo, human
Conditions: both sexes, human, plasma, po, 100 mg, 100 mg single oral dose; normal hepatic function; read-out: AUC0-inf, mean ±SD
measured metric: AUC(0-inf) (ng·h/mL)
Your answer is read as ng·h/mL, so omit the unit and give the number.

Recorded AUC(0-inf) for C[C@@H]1[C@H](c2ccccc2)C[C@H](NC(=O)c2cnc3c(c2)C[C@@]2(C3)C(=O)Nc3ncccc32)C(=O)N1CC(F)(F)F , please?
1600

---

Test: Phase 1 hepatic impairment PK study, single 100 mg dose
Format: in vivo, human
Settings: both sexes, human, plasma, po, 100 mg, 100 mg single oral dose; normal hepatic function; read-out: t1/2, mean ±SD (converted)
measured metric: half-life
Report as: number unit

Recorded half-life for C[C@@H]1[C@H](c2ccccc2)C[C@H](NC(=O)c2cnc3c(c2)C[C@@]2(C3)C(=O)Nc3ncccc32)C(=O)N1CC(F)(F)F , please?
336 min

---

Assay: Study B: drug interaction PK with rifampin
Type: in vivo, human
Conditions: human, plasma, oral, 100 mg, ubrogepant 100 mg alone; read-out: Geometric LSM AUC0-t, Reference
measured metric: AUC(0-t)

Recorded AUC(0-t) for C[C@@H]1[C@H](c2ccccc2)C[C@H](NC(=O)c2cnc3c(c2)C[C@@]2(C3)C(=O)Nc3ncccc32)C(=O)N1CC(F)(F)F , please?
1.72 µg·h/mL

---

Test: Study A: drug interaction PK with verapamil or ketoconazole
Format: in vivo, human
Conditions: human, plasma, oral, ubrogepant 20 mg with verapamil 240 mg; read-out: Tmax
measured metric: Tmax (h)
Your answer is read as h, so omit the unit and give the number.

Recorded Tmax for C[C@@H]1[C@H](c2ccccc2)C[C@H](NC(=O)c2cnc3c(c2)C[C@@]2(C3)C(=O)Nc3ncccc32)C(=O)N1CC(F)(F)F , please?
2

---

Experiment: Phase 1 hepatic impairment PK study, single 100 mg dose
Format: in vivo, human
Settings: both sexes, human, plasma, po, 100 mg, 100 mg single oral dose; severe hepatic impairment; read-out: Vz/F, mean ±SD
measured metric: Vd/F

Recorded Vd/F for C[C@@H]1[C@H](c2ccccc2)C[C@H](NC(=O)c2cnc3c(c2)C[C@@]2(C3)C(=O)Nc3ncccc32)C(=O)N1CC(F)(F)F [ubrogepant] , please?
248 L

---

Test: Phase 1 food effect study, 100 mg tablet fed vs fasted
Assay type: in vivo, human
Conditions: both sexes, human, plasma, oral, 100 mg, 1 × 100 mg tablet, fed; read-out: GLSM AUC0-inf
measured metric: AUC(0-inf) (ng·h/mL)
Your answer is read as ng·h/mL, so omit the unit and give the number.

Recorded AUC(0-inf) for C[C@@H]1[C@H](c2ccccc2)C[C@H](NC(=O)c2cnc3c(c2)C[C@@]2(C3)C(=O)Nc3ncccc32)C(=O)N1CC(F)(F)F , please?
1350

---

Assay: Phase 1 food effect study, 100 mg tablet fed vs fasted
Type: in vivo, human
Details: both sexes, human, plasma, oral, 100 mg, 1 × 100 mg tablet, fed; read-out: Tmax, median (minimum − maximum)
measured metric: Tmax (h)
Your answer is read as h, so omit the unit and give the number.

Recorded Tmax for C[C@@H]1[C@H](c2ccccc2)C[C@H](NC(=O)c2cnc3c(c2)C[C@@]2(C3)C(=O)Nc3ncccc32)C(=O)N1CC(F)(F)F , please?
3

---

Assay: Study B: drug interaction PK with rifampin
Assay type: in vivo, human
Details: human, plasma, oral, 100 mg; read-out: Tmax, median (range)
measured metric: Tmax (h)
Your answer is read as h, so omit the unit and give the number.

Recorded Tmax for C[C@@H]1[C@H](c2ccccc2)C[C@H](NC(=O)c2cnc3c(c2)C[C@@]2(C3)C(=O)Nc3ncccc32)C(=O)N1CC(F)(F)F , please?
2

---

Assay: Study A: drug interaction PK with verapamil or ketoconazole
Type: in vivo, human
Details: human, plasma, oral, ubrogepant 20 mg + ketoconazole 400 mg; read-out: Tmax, median (range)
measured metric: Tmax

Recorded Tmax for C[C@@H]1[C@H](c2ccccc2)C[C@H](NC(=O)c2cnc3c(c2)C[C@@]2(C3)C(=O)Nc3ncccc32)C(=O)N1CC(F)(F)F , please?
2.5 h

---

Test: Phase 1 food effect study, 100 mg tablet fed vs fasted
Assay type: in vivo, human
Settings: both sexes, human, plasma, oral, 100 mg, 1 × 100 mg tablet, fed; read-out: t1/2, mean (CV %) (converted)
Experimental: The treatments were administered in 1 of 2 sequences in periods 1 and 2 with a washout period of at least 7 days between each treatment. Eighteen healthy participants with a mean age of 28.4 years (range: 20 to 39 years) were enrolled. The majority of participants were male (14 of 18, 77.8%). […] Mean (SD) weight was 75.99 ([…]) kg and mean (SD) BMI was 25.03 (3.290) kg/m2. […]
measured metric: half-life

Recorded half-life for C[C@@H]1[C@H](c2ccccc2)C[C@H](NC(=O)c2cnc3c(c2)C[C@@]2(C3)C(=O)Nc3ncccc32)C(=O)N1CC(F)(F)F [ubrogepant] , please?
~5 h

---

Test: Phase 1 hepatic impairment PK study, single 100 mg dose
Format: in vivo, human
Conditions: both sexes, human, plasma, po, 100 mg, 100 mg single oral dose; normal hepatic function; read-out: Geometric LSM AUC0-t, Reference
measured metric: AUC(0-t) (ng·h/mL)
Your answer is read as ng·h/mL, so omit the unit and give the number.

Recorded AUC(0-t) for C[C@@H]1[C@H](c2ccccc2)C[C@H](NC(=O)c2cnc3c(c2)C[C@@]2(C3)C(=O)Nc3ncccc32)C(=O)N1CC(F)(F)F [ubrogepant] , please?
1510

---

Test: Phase 1 hepatic impairment PK study, single 100 mg dose
Format: in vivo, human
Conditions: both sexes, human, plasma, po, 100 mg, 100 mg single oral dose; severe hepatic impairment; read-out: Cmax, mean ±SD
Excerpt: The study was intended to enroll 24 male and female participants with hepatic impairment (8 mildly impaired, 8 moderately impaired, and 8 severely impaired) and 8 healthy male and female participants with normal hepatic function, aged 18 through 75 years, who were matched closely to the age, weight, and gender of the hepatically impaired groups. Participants with hepatic impairment were categorized according to the Child-Pugh classification. […]
measured metric: Cmax (ng/mL)
Your answer is read as ng/mL, so omit the unit and give the number.

Recorded Cmax for C[C@@H]1[C@H](c2ccccc2)C[C@H](NC(=O)c2cnc3c(c2)C[C@@]2(C3)C(=O)Nc3ncccc32)C(=O)N1CC(F)(F)F , please?
509

---

Test: Phase 1 hepatic impairment PK study, single 100 mg dose
Format: in vivo, human
Details: both sexes, human, plasma, po, 100 mg, 100 mg single oral dose; severe hepatic impairment; read-out: AUC0-t, mean ±SD
measured metric: AUC(0-t) (ng·h/mL)
Your answer is read as ng·h/mL, so omit the unit and give the number.

Recorded AUC(0-t) for C[C@@H]1[C@H](c2ccccc2)C[C@H](NC(=O)c2cnc3c(c2)C[C@@]2(C3)C(=O)Nc3ncccc32)C(=O)N1CC(F)(F)F , please?
3310

---

Test: Phase 1 hepatic impairment PK study, single 100 mg dose
Type: in vivo, human
Settings: both sexes, human, plasma, po, 100 mg, 100 mg single oral dose; normal hepatic function; read-out: Geometric LSM AUC0-∞, Reference
measured metric: AUC(0-inf) (ng·h/mL)
Your answer is read as ng·h/mL, so omit the unit and give the number.

Recorded AUC(0-inf) for C[C@@H]1[C@H](c2ccccc2)C[C@H](NC(=O)c2cnc3c(c2)C[C@@]2(C3)C(=O)Nc3ncccc32)C(=O)N1CC(F)(F)F [ubrogepant] , please?
1520

All values here come from patent US20240180883A1.
